// reported Toxicity per item
- Experiment: Minimum concentration not causing a microscopically detectable cytotoxic alteration of normal human embryonic lung fibroblast (HELF) morphology

Compound	Toxicity
O=c1nc(OC(F)F)c(I)cn1[C@@H]1O[C@H](CO)[C@@H](O)[C@H]1O	> 500 µM
O=c1[nH]c(=O)n(C2O[C@H](CO)[C@@H](O)[C@@H]2O)cc1I (some centres undefined)	> 500 µM
Cc1cn([C@@H]2O[C@H](CO)[C@@H](O)[C@@H]2O)c(=O)[nH]c1=O	> 1000 µM
Cc1cn(C2O[C@H](CO)[C@@H](O)[C@@H]2O)c(=O)nc1OC(F)F (some centres undefined)	> 1000 µM
O=c1nc(OC(F)F)c(/C=C/Br)cn1C1O[C@H](CO)[C@@H](O)[C@@H]1O (some centres undefined)	> 500 µM
O=c1nc(OC(F)F)c(F)cn1[C@@H]1O[C@H](CO)[C@@H](O)[C@H]1O	> 500 µM
CCc1cn([C@H]2C[C@H](O)[C@@H](CO)O2)c(=O)nc1OC(F)F	> 1000 µM
O=c1[nH]c(=O)n([C@@H]2O[C@H](CO)[C@@H](O)[C@@H]2O)cc1Br	> 1000 µM
O=c1nc(OC(F)F)c(I)cn1[C@@H]1O[C@H](CO)[C@@H](O)[C@@H]1O	> 1000 µM
Cc1cn([C@H]2C[C@H](O)[C@@H](CO)O2)c(=O)nc1OC(F)F	> 1000 µM
O=c1nc(OC(F)F)ccn1[C@@H]1O[C@H](CO)[C@@H](O)[C@@H]1O	> 1000 µM
O=c1nc(OC(F)F)c(Br)cn1[C@@H]1O[C@H](CO)[C@@H](O)[C@H]1O	> 250 µM
O=c1[nH]c(=O)n([C@H]2C[C@H](O)[C@@H](CO)O2)cc1Br	> 1000 µM
O=c1nc(OC(F)F)c(F)cn1[C@@H]1O[C@H](CO)[C@@H](O)[C@@H]1O	> 500 µM
CCc1cn([C@H]2C[C@H](O)[C@@H](CO)O2)c(=O)[nH]c1=O	> 1000 µM
O=c1nc(OC(F)F)ccn1[C@@H]1O[C@H](CO)[C@@H](O)[C@H]1O	> 1000 µM
CCc1cn(C2O[C@H](CO)[C@@H](O)[C@@H]2O)c(=O)nc1OC(F)F (some centres undefined)	> 500 µM
O=c1nc(OC(F)F)c(Br)cn1[C@H]1C[C@H](O)[C@@H](CO)O1	> 500 µM
O=c1nc(OC(F)F)c(Br)cn1[C@@H]1O[C@H](CO)[C@@H](O)[C@@H]1O	> 1000 µM

---

- Test system: Human betaherpesvirus 5
- Experiment: Ability to reduce plaque formation of human cytomegalovirus (HCMV) by 50% in human embryonic lung fibroblast (HELF) cell cultures
- Type: functional
- Test Conditions: Human betaherpesvirus 5, HELF; read-out: ID50 (the source's name)
Recorded Metric: IC50

Molecule	Tested On	Measured
Cc1cn([C@@H]2O[C@H](CO)[C@@H](O)[C@@H]2O)c(=O)[nH]c1=O	Human betaherpesvirus 5	> 500 µM
Cc1cn(C2O[C@H](CO)[C@@H](O)[C@@H]2O)c(=O)nc1OC(F)F (some centres not stated)	Human betaherpesvirus 5	> 500 µM
